For each of the compounds below, state its IC50.
measurement-target: PRMT1 (Homo sapiens, UniProt Q99873)
Construct: made in house
Sequence (Q99873 whole entry, species assumed): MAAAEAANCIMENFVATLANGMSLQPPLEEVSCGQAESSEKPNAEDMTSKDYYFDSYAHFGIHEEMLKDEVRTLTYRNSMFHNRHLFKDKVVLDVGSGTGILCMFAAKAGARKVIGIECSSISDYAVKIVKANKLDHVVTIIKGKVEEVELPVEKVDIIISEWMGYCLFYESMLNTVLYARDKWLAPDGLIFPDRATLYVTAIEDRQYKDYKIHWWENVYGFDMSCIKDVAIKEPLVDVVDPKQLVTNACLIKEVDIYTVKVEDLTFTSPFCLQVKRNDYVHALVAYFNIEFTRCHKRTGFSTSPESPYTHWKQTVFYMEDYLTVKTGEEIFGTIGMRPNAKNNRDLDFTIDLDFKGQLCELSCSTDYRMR
assay-info: SAHH-coupled fluorescence assay, inhibition of PRMT1
Format: biochemical
recorded-conditions: read-out: IC50 FOR PRMT1
Numbers only, in nM.

compound="N=C(NCCCSC[C@H]1O[C@@H](n2cnc3c(NCCCc4ccccc4)ncnc32)[C@H](O)[C@@H]1O)NCCc1ccccc1 [Compound 19l]" unit_descriptor=nM readout_value=500

Hey, quick one: what's IC50 for each of these?
1. N=C(NCCCSC[C@H]1O[C@@H](n2cnc3c(NCCCc4ccccc4)ncnc32)[C@H](O)[C@@H]1O)NCc1ccccc1 [Compound 19k]
2. N=C(NCCCN)NCCCSC[C@H]1O[C@@H](n2cnc3c(NCCCc4ccccc4)ncnc32)[C@H](O)[C@@H]1O [Compound 19i]
3. N=C(NCCCO)NCCCSC[C@H]1O[C@@H](n2cnc3c(NCCCc4ccccc4)ncnc32)[C@H](O)[C@@H]1O
4. N=C(NCCCSC[C@H]1O[C@@H](n2cnc3c(NCCCc4ccccc4)ncnc32)[C@H](O)[C@@H]1O)NC1CCCCC1 [Compound 19e]
5. N=C(NCCCSC[C@H]1O[C@@H](n2cnc3c(NCCCc4ccccc4)ncnc32)[C@H](O)[C@@H]1O)NC1CCC1 [Compound 19c]
6. N=C(NCCCSC[C@H]1O[C@@H](n2cnc3c(NCCCc4ccccc4)ncnc32)[C@H](O)[C@@H]1O)NCC1CC1 [Compound 19f]
7. N=C(NCCCSC[C@H]1O[C@@H](n2cnc3c(NCCCc4ccccc4)ncnc32)[C@H](O)[C@@H]1O)Nc1ccccc1 [Compound 19j]

480
1300
590
750
550
920
460

Hey, quick one: what's IC50 for each of these?
1. N=C(NCCCSC[C@H]1O[C@@H](n2cnc3c(NCCCc4ccccc4)ncnc32)[C@H](O)[C@@H]1O)NC1CC1 [Compound 19b]
2. CCCCNC(=N)NCCCSC[C@H]1O[C@@H](n2cnc3c(NCCCc4ccccc4)ncnc32)[C@H](O)[C@@H]1O [Compound 19a]
3. N=C(NCCCSC[C@H]1O[C@@H](n2cnc3c(NCCCc4ccccc4)ncnc32)[C@H](O)[C@@H]1O)NCCCc1ccccc1 [Compound 19m]
4. N=C(NCCCSC[C@H]1O[C@@H](n2cnc3c(NCCCc4ccccc4)ncnc32)[C@H](O)[C@@H]1O)NCC1CCC1
5. N=C(NCCCSC[C@H]1O[C@@H](n2cnc3c(NCCCc4ccccc4)ncnc32)[C@H](O)[C@@H]1O)NC1CCCC1 [Compound 19d]

1: 1200; 2: 650; 3: 740; 4: 590; 5: 590

====

measurement-target: PRMT1 (Homo sapiens, UniProt Q99873)
Construct: made in house
assay-info: SAHH-coupled fluorescence assay, inhibition of PRMT1
Assay type: biochemical
For each of the molecules below, state its inhibition at 10 µM.
Numbers only, in %.

molecule="COc1cc2nc(-c3ccc(O)cc3)nc(NCCSC[C@H]3O[C@@H](n4cnc5c(N)ncnc54)[C@H](O)[C@@H]3O)c2cc1OC [Compound 12b]" metric_name="inhibition at 10 µM" readout_value=2
molecule="COc1cc2nc(-c3ccc(C(F)(F)F)cc3)nc(NCCSC[C@H]3O[C@@H](n4cnc5c(N)ncnc54)[C@H](O)[C@@H]3O)c2cc1OC [Compound 12e]" metric_name="inhibition at 10 µM" readout_value=3
molecule="N=C(NCCSC[C@H]1O[C@@H](n2cnc3c(N)ncnc32)[C@H](O)[C@@H]1O)Nc1cccc(-c2ccc(C(F)(F)F)cc2)c1 [Compound 6b]" metric_name="inhibition at 10 µM" readout_value=83
molecule="N=C(NCCCSC[C@H]1O[C@@H](n2cnc3c(N)ncnc32)[C@H](O)[C@@H]1O)Nc1cccc(-c2ccc(F)nc2)c1 [Compound 6n]" metric_name="inhibition at 10 µM" readout_value=91
molecule="N=C(NCCSC[C@H]1O[C@@H](n2cnc3c(N)ncnc32)[C@H](O)[C@@H]1O)NCc1ccccc1 [Compound 5a]" metric_name="inhibition at 10 µM" readout_value=86

// next entry
# inhibition at 10 µM of N=C(NCCCSC[C@H]1O[C@@H](n2cnc3c(N)ncnc32)[C@H](O)[C@@H]1O)Nc1cccc(-c2ccc(O)cc2)c1 [Compound 6e] = 95
